Target: Protein farnesyltransferase (Rattus norvegicus, UniProt Q02293+Q04631)
Assay: In vitro inhibitory concentration evaluated against P21ras Farnesyl transferase
test.readout: pIC50
Lab note: report pIC50 as minus log10 of the concentration in molar units, number only.

Please review the following examples before continuing.
CSCC[C@H](NC(=O)[C@@H](NC(=O)[C@@H](NC(=O)[C@@H](N)CS)C(C)C)c1ccccc1)C(=O)O | 6.16
CCCC[C@H](NC(=O)[C@H](Cc1ccccc1)NC(=O)[C@@H](NC(=O)[C@@H](N)CS)C(C)C)C(=O)O | 6.02
CSCC[C@@H](C(=O)O)N(C)C(=O)[C@H](Cc1ccccc1)NC(=O)[C@@H](NC(=O)[C@@H](N)CS)C(C)C | 5.85

Okay, now this compound:
Query: Please give the measured pIC50 for this compound: CSCC[C@H](NC(=O)[C@H](Cc1ccccc1)NC(=O)C1(NC(=O)[C@@H](N)CS)CCCCC1)C(=O)O
Response: 5.92
